# credit: patent US7973079B2

tested on: panel of six cytochrome P450 isozymes; experiment: Cytochrome P450 inhibition profile (panel of six isozymes); format: in vitro ADME
REPORTED_METRIC: inhibition at 2 μM

Look over these answered cases.
- COMPOUND: "CC(C)(C)c1cc(Cl)ccc1OCCCC(=O)O"
  inhibition at 2 μM: "~15%"
- COMPOUND: "CC(C)(C)c1cc(Cl)ccc1OCCCCC(=O)Nc1ccc(CC(=O)O)cc1"
  inhibition at 2 μM: "< 10%"
- COMPOUND: "CC(C)(C)c1cc(Cl)ccc1OCCCCC(=O)O"
  inhibition at 2 μM: "≤ 10%"
- COMPOUND: "CC(C)(C)c1cc(Cl)ccc1OCCCCC(=O)Nc1ccc(C(=O)O)cc1"
  inhibition at 2 μM: "< 10%"
- COMPOUND: "CC(C)(C)c1cc(Cl)ccc1OCC1CCC(C(=O)Nc2ccc(C(=O)O)cc2)C1 (centres unmarked)"
  inhibition at 2 μM: "< 10%"
- COMPOUND: "CC(C)(C)c1cc(Cl)ccc1OCCCCCCC(=O)O"
  inhibition at 2 μM: "~15%"
- COMPOUND: "CC(C)(C)c1cc(Cl)ccc1OCC1CCCC(C(=O)O)C1 (centres unmarked)"
  inhibition at 2 μM: "< 10%"
- COMPOUND: "CC(C)(C)c1cc(Cl)ccc1OCC1CCC(C(=O)Nc2ccc(O)cc2)C1 (centres unmarked)"
  inhibition at 2 μM: "< 10%"
- COMPOUND: "CC(C)(C)c1cc(Cl)ccc1OCCCCCCC(=O)Nc1ccc(O)cc1"
  inhibition at 2 μM: "~40%"
- COMPOUND: "CC(C)(C)c1cc(Cl)ccc1OCCCCC(=O)Nc1ccc(O)cc1"
  inhibition at 2 μM: "~50%"

Query block: Provide inhibition at 2 μM, recorded with panel of six cytochrome P450 isozymes, of CC(C)(C)c1cc(Cl)ccc1OCC1CCC(C(=O)O)C1 (centres unmarked)
Result block: < 10%
